The following compounds are shown together with reported pIC50 values.
- test.target: recombinant eIF4E (Homo sapiens (Human), UniProt P06730)
- Sequence (P06730 whole entry): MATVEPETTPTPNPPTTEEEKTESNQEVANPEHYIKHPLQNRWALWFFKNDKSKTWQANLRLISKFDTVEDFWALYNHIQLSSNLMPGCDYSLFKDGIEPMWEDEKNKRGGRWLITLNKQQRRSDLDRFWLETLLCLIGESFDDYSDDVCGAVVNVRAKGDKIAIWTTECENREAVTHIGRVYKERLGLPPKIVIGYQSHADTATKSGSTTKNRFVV
- protocol.details: Fluorescence polarization competition assay for eIF4E binding potency
- recorded.conditions: fluorescence polarization competition, 75 nM recombinant eIF4E, 20 nM EDA-m7GDP-ATTO-550; IC50 class; read-out: elF4E FP
pIC50: −log10 of the molar value.

Here's what some known entries look like.
| compound | recorded.value |
| --- | --- |
| N#Cc1cn(CCOc2ccc(Cl)cc2-c2ccnc3c(C(=O)O)csc23)c2c(=O)[nH]c(Nc3ccccc3)nc12 [compound 175] | > 7.30 |
| Cc1cc(-c2cc(Cl)ccc2OCCn2c(C)nc3cc(C(F)(F)F)c(N4CCN(CCF)CC4)c(C#N)c3c2=O)c2scc(C(=O)O)c2n1 [compound 430] | > 7.30 |
| COc1ccc(-c2cc(Cl)ccc2OCCn2c(C)nc3c(C)ncc(C#N)c3c2=O)c2scc(C(=O)O)c12 [compound 721] | > 7.30 |
| Cc1nc2cnc(N3CC4(CC(N(C)C5CC5)C4)C3)c(C#N)c2c(=O)n1CCOc1ccc(Cl)cc1-c1ccnc2c(C(=O)O)csc12 [compound 829] | > 7.30 |
| Cc1cc(-c2cc(Cl)ccc2OCCn2c(C)nc3c(C)nc(-c4ccccc4F)c(C#N)c3c2=O)c2scc(C(=O)O)c2n1 [compound 476] | > 7.30 |
| Cc1cc(-c2cc(Cl)ccc2OCCn2c(C)nc3c(C)nc(-c4c(C)cccc4C)c(C#N)c3c2=O)c2scc(C(=O)O)c2n1 [compound 872] | > 7.30 |
| Cc1cc(-c2cc(Cl)ccc2OCCn2c(C)nc3cnc(C4CCCC4(F)F)c(C#N)c3c2=O)c2scc(C(=O)O)c2n1 (stereo not drawn) [compound 929] | > 7.30 |
| Cc1cc(-c2cc(Cl)ccc2OCCn2c(C)nc3c(C)nc(-c4ccccc4C)c(C#N)c3c2=O)c2scc(C(=O)O)c2n1 [compound 479] | > 7.30 |

IN: Answer with reported pIC50 of Cc1nc2cnc(/C=C/C3(N(C)C)CC3)c(C#N)c2c(=O)n1CCOc1ccc(Cl)cc1-c1ccnc2c(C(=O)O)csc12 [compound 1123]
OUT: > 7.30

IN: Answer with reported pIC50 of N#Cc1ncc(CCOc2ccc(Cl)cc2-c2cccc(C(=O)O)c2)c2c(=O)[nH]c(NCC(F)(F)F)nc12 [compound 177]
OUT: > 7.30

IN: Answer with reported pIC50 of Cc1cc(-c2cc(Cl)ccc2OCCn2c(C)nc3cnc(N4CCN(C)CC4)c(C#N)c3c2=O)c2sccc2n1 [compound 1089]
OUT: 6.00 to 7.30

IN: Answer with reported pIC50 of Cc1cc(-c2cc(Cl)ccc2OCCn2c(C)nc3cnc(OC4CNC4)c(C#N)c3c2=O)c2sc(C)c(C(=O)O)c2n1 [compound 869]
OUT: > 7.30

IN: Answer with reported pIC50 of CCN(c1ncc2nc(C)n(CC#Cc3ccc(Cl)cc3-c3ccnc4c(C(=O)O)csc34)c(=O)c2c1C#N)C1CCN(C2COC2)CC1 [compound 1186]
OUT: > 7.30

IN: Answer with reported pIC50 of Cc1cc(-c2cc(Cl)ccc2OCCn2c(C)nc3c(C)ncc(C#N)c3c2=O)c2scc(C(O)(O)C(F)(F)F)c2n1 [compound 732]
OUT: 6.00 to 7.30

IN: Answer with reported pIC50 of N#Cc1c(C(F)(F)F)ccc2ncn(CCOc3ccc(Cl)cc3-c3cccc(C(=O)O)c3)c(=O)c12 [compound 133]
OUT: 6.00 to 7.30
